This collection of values is drawn from paper PMC4607367.

Target: Human pancreatic α-amylase (HPA) (Homo sapiens, UniProt P04746)
Construct: purchased Sigma Aldrich, USA
Sequence (P04746 16-511): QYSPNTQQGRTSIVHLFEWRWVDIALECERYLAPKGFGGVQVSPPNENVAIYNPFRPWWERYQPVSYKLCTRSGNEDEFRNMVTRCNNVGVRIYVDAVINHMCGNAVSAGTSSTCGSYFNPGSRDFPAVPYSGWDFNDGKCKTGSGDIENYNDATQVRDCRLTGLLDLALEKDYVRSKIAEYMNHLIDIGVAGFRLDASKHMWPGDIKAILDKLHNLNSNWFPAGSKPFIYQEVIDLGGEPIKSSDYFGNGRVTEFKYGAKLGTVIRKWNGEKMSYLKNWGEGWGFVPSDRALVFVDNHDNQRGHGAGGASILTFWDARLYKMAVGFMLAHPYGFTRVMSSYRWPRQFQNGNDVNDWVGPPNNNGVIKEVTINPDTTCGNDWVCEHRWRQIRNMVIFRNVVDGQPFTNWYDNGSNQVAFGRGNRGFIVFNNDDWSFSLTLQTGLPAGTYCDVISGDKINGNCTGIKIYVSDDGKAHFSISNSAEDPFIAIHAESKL
Assay: Ligand binding to HPA by fluorescence quenching titration, thermodynamic parameters
Settings: 298 K
As shown below, each of these molecules has a reported Kd value.
Could you give me the number in µM? Just the number is fine.

molecule="CC(=O)O[C@@H]1C[C@H]2C(C)(C)C(=O)C=C[C@]2(C)[C@H]2CC[C@]3(C)C(=CC(=O)[C@H]3c3ccoc3)[C@@]21C [azadiradione]" system_name="Human pancreatic α-amylase (HPA) (Homo sapiens, UniProt P04746)" endpoint_value=200

Attention now turns to another entry.
Notebook entry, Human pancreatic α-amylase (HPA) (Homo sapiens, UniProt P04746) assay: Kd of CC(=O)O[C@@H]1C[C@H]2C(C)(C)C(=O)C=C[C@]2(C)[C@H]2CC[C@@]3(C)[C@H](c4ccoc4)OC(=O)[C@H]4O[C@]43[C@@]21C [gedunin] = ?
200

###

Molecular target: Human pancreatic α-amylase (HPA) (Homo sapiens, UniProt P04746)
Construct: purchased Sigma Aldrich, USA
Assay: Ligand binding to HPA by fluorescence quenching titration, thermodynamic parameters
Conditions: 323K
readout kind: Kd (mM)
Expressed in mM, but write only the number.

Which value of Kd has been reported for CC(=O)O[C@@H]1C[C@H]2C(C)(C)C(=O)C=C[C@]2(C)[C@H]2CC[C@]3(C)C(=CC(=O)[C@H]3c3ccoc3)[C@@]21C [azadiradione] in the records?
0.6

Please answer likewise for CC(=O)O[C@@H]1C[C@H]2C(C)(C)C(=O)C=C[C@]2(C)[C@H]2CC[C@@]3(C)[C@H](c4ccoc4)OC(=O)[C@H]4O[C@]43[C@@]21C [gedunin]
12.2

###

Reported values of pKd for individual entries
Biological target: Human pancreatic α-amylase (HPA) (Homo sapiens, UniProt P04746)
Construct: purchased Sigma Aldrich, USA
Experiment: Ligand binding to HPA by fluorescence quenching titration, thermodynamic parameters
Settings: 308 K
Please express pKd as -log10 of the molar concentration.

molecule="CC(=O)O[C@@H]1C[C@H]2C(C)(C)C(=O)C=C[C@]2(C)[C@H]2CC[C@@]3(C)[C@H](c4ccoc4)OC(=O)[C@H]4O[C@]43[C@@]21C [gedunin]" endpoint_value=2.80

What value of pKd has been reported for the following molecule? CC(=O)O[C@@H]1C[C@H]2C(C)(C)C(=O)C=C[C@]2(C)[C@H]2CC[C@]3(C)C(=CC(=O)[C@H]3c3ccoc3)[C@@]21C [azadiradione]
3.52

###

Biological target: Human pancreatic α-amylase (HPA) (Homo sapiens, UniProt P04746)
Construct: purchased Sigma Aldrich, USA
Sequence (P04746 16-511): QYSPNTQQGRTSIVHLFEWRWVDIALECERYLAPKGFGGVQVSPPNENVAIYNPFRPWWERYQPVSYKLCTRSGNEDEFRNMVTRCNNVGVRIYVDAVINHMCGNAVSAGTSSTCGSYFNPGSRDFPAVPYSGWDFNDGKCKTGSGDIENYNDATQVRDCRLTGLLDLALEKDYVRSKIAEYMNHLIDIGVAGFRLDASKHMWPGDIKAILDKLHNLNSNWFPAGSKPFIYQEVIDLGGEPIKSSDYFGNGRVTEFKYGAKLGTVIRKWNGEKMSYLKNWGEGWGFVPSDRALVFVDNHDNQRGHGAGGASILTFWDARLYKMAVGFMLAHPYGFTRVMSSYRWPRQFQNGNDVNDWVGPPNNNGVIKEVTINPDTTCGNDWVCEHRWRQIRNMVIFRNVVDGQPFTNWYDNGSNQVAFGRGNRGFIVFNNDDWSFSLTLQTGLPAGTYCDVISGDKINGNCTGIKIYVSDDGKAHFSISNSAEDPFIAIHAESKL
Experiment: Ligand binding to HPA by fluorescence quenching titration, thermodynamic parameters
Conditions: 313 K
As shown below, each of these compounds has a reported pKd value.
Give only the number. pKd is defined as minus log10 of concentration in molar units.

smiles_record=CC(=O)O[C@@H]1C[C@H]2C(C)(C)C(=O)C=C[C@]2(C)[C@H]2CC[C@@]3(C)[C@H](c4ccoc4)OC(=O)[C@H]4O[C@]43[C@@]21C endpoint_value=2.08

Switching to the query record.
Dear colleague, I am looking for the recorded pKd of the following compound: `CC(=O)O[C@@H]1C[C@H]2C(C)(C)C(=O)C=C[C@]2(C)[C@H]2CC[C@]3(C)C(=CC(=O)[C@H]3c3ccoc3)[C@@]21C`
3.40

###

Biological target: Human pancreatic α-amylase (HPA) (Homo sapiens, UniProt P04746)
Construct: purchased Sigma Aldrich, USA
Sequence (P04746 16-511): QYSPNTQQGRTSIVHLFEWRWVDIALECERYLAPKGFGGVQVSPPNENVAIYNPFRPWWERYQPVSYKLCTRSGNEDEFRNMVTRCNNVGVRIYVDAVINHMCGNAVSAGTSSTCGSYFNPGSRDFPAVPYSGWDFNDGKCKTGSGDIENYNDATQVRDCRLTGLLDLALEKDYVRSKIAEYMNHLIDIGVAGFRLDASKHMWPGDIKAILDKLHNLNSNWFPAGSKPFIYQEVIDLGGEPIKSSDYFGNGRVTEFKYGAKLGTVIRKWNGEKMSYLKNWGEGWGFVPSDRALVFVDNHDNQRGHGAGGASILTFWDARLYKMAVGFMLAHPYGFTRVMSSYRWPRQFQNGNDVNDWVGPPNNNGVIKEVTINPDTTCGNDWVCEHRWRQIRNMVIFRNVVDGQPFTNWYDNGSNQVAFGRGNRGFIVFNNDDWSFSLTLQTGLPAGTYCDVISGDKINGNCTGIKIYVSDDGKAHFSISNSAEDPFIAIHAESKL
Assay: Ligand binding to HPA by fluorescence quenching titration, thermodynamic parameters
Conditions: 333K
Protocol: Ligand binding studies using fluorescence measurements of HPA were carried as described in our earlier report. […] Non-linear and linear regression analyses were used to analyze the data. The thermodynamic parameters, association constants (K a), dissociation constant (K d) and Gibbs free energy (ΔG°) of binding for azadiradione and gedunin were determined at various temperatures 25°C to 60°C by fluorescence quenching studies.
readout kind: pKd
Scale explanation: pKd corresponds to minus log10 of a concentration expressed in moles per litre.

smiles_record=CC(=O)O[C@@H]1C[C@H]2C(C)(C)C(=O)C=C[C@]2(C)[C@H]2CC[C@]3(C)C(=CC(=O)[C@H]3c3ccoc3)[C@@]21C endpoint_value=2.92

Now consider the entry below.
Value lookup for pKd; key = `CC(=O)O[C@@H]1C[C@H]2C(C)(C)C(=O)C=C[C@]2(C)[C@H]2CC[C@@]3(C)[C@H](c4ccoc4)OC(=O)[C@H]4O[C@]43[C@@]21C`
1.17

###

Target: Human pancreatic α-amylase (HPA) (Homo sapiens, UniProt P04746)
Sequence (P04746 16-511): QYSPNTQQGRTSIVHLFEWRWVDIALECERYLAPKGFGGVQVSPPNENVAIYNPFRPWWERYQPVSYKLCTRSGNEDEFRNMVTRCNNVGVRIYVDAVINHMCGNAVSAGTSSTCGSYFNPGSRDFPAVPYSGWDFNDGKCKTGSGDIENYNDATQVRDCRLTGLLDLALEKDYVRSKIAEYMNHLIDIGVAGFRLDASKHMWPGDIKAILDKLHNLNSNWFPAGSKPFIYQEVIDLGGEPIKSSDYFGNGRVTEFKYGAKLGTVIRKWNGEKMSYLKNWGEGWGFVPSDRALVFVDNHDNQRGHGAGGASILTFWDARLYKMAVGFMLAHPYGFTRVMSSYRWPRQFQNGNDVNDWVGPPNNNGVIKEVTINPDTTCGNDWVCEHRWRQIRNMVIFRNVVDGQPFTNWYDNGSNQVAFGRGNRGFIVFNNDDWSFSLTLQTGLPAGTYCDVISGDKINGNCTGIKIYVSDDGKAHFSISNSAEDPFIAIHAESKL
readout kind: IC50 (µM)
Numbers only; they are read as µM.

// map `CC(=O)O[C@@H]1C[C@H]2C(C)(C)C(=O)C=C[C@]2(C)[C@H]2CC[C@@]3(C)[C@H](c4ccoc4)OC(=O)[C@H]4O[C@]43[C@@]21C` to recorded IC50 (system: Human pancreatic α-amylase (HPA) (Homo sapiens, UniProt P04746))
68.4
